Measured values drawn from ChEMBL document CHEMBL4373746 for this set.

experiment: Fraction unbound in Wistar Han rat brain at 2 uM incubated for 6 hrs by equilibrium dialysis method
The label class 1 is reserved for fraction unbound at 6 h, 2 µM strictly under 0.01; class 0 covers values equal to or above it.

Look over these answered cases.
Q: Below 0.01 on fraction unbound at 6 h, 2 µM? Entry `Cn1nc(C(=O)NCCN2CCOCC2)cc1-c1cc2ccccc2[nH]1`
Ans: class 0

Q: Same question for `Cn1cnc(-c2ccc(O[C@H]3CCN(C(=O)Cc4ccc(OC(F)(F)F)cc4)C[C@@H]3F)c(C(N)=O)c2)c1` please.
Ans: class 0

Q: Also need `CC1(OC(=O)N2CCC(n3ncc(COc4ccc(C(N)=O)cc4F)c3C#N)CC2)CC1` , thanks.
Ans: class 0

Q: Consider next the compound `CCC[C@H](Oc1cc(C)c(-n2cc(C(F)(F)F)cn2)c(C)c1)c1ccc(C(=O)NCCC(=O)O)cc1` in the same way.
Ans: class 1

Q: And the next one, `Cc1ccc(CC(C)(C)NC[C@@H](O)CO[C@H](C)c2ccccc2-c2ccc(C(=O)O)c(C)c2)cc1F` ?
Ans: class 0

Q: How about `O=C(O)[C@@H]1CCN(C(=O)n2cnc(-c3ccc(-c4cnc(N5CCOCC5)nc4)cc3)n2)[C@@H](c2ccccc2)C1` ?
Ans: class 1

---
Q: Determine whether this compound shows fraction unbound at 6 h, 2 µM lower than 0.01 (ties excluded): `O=C(NC1CCCC1)C1CCN(c2nc3cc(Cl)ccc3o2)CC1`
Ans: class 0

Q: Also need `Cc1ccc(NC(=O)c2cc(Oc3ccc(S(C)(=O)=O)cc3)c3c(c2)OC(C)(C)C3)nc1` , thanks.
Ans: class 1

###

experiment: Unbound tissue partition coefficient, ratio of drug level in heart to plasma in Wistar Han rat at 1 to 2 mg/kg, iv infused for 10 to 20 hrs by LC-MS/MS analysis; settings: heart/plasma
Hi! Just check whether Kp uu is below 3. Below gives met, equal or above gives not met.

Q: Decide: Kp uu of `O=C(O)[C@@H]1CCCN(C(=O)n2cnc(-c3ccc(-c4cnc(N5CCOCC5)nc4)cc3)n2)[C@H]1c1ccccc1` strictly below 3?
Ans: met

More entries:
Q: Please indicate whether the reported Kp uu of `O=C(O)C(=O)Nc1ccc(NC(=O)[C@H](CC2CCCC2)n2cnc(C(F)(F)F)c2)nc1` is strictly below 3.
Ans: met

Q: Another: `CC1(OC(=O)N2CCC(n3ncc(COc4ccc(C(N)=O)cc4F)c3C#N)CC2)CC1`
Ans: met

Q: Can you handle `C[C@H]1C[C@H]2CSC(N)=N[C@@]2(c2cc(C#N)ccc2F)CO1` next?
Ans: not met

Q: Same again, this time with `O=C(O)c1c[nH]c2cc(Cl)c(-c3ccc(CC(=O)N4CCOCC4)cc3)cc12`
Ans: not met

###

assay: Drug concentration in total white adipose tissue in Wistar Han rat at 1 to 2 mg/kg, iv infused for 10 to 20 hrs by LC-MS/MS analysis; settings: in vivo
Define the label as met when Ct is strictly less than 20 ng/mL and as not met in all remaining cases.

Answered examples (8):
Q: Item `Cc1nc2cc(-c3cc(F)cc(C#N)c3)ccc2s1` : Ct beneath 20 ng/mL, strictly?
Ans: not met

Q: Subsequent entry: `O=C(O)[C@@H]1CCCN(C(=O)n2cnc(-c3ccc(-c4cnc(N5CCOCC5)nc4)cc3)n2)[C@H]1c1ccccc1`
Ans: met

Q: Cool, now `CN(C)C(=O)c1cc(CC(=O)O)ccc1NC(=O)c1ccccc1-c1ccc(C(F)(F)F)cc1`
Ans: met

Q: Try this compound next: `C[C@H]1C[C@H]2CSC(N)=N[C@@]2(c2cc(C#N)ccc2F)CO1`
Ans: not met

Q: Param item: `CC(C)n1ncc2c1C(=O)CC1(CCN(C(=O)c3ccc4[nH]nc(C(N)=O)c4c3)CC1)C2`
Ans: met

Q: What would you report for `C[C@H]1COCCN1c1nc(-c2cnc(N)nc2)c2c(n1)N([C@@]1(C)CCN(C(=O)C(C)(C)N)C1)CC2` ?
Ans: not met

Q: Item: `CN(C)C[C@@H](OC(=O)N1Cc2c(NC(=O)C3(C(F)(F)F)CC3)n[nH]c2C1(C)C)c1ccccc1`
Ans: not met

Q: Now this one: `COc1ccc2ncc(F)c([C@@H](O)CC[C@@H]3CCN(CCSc4cccs4)C[C@@H]3C(=O)O)c2c1`
Ans: met

// next entry
Q: Strictly below 20 ng/mL in Ct? `C[C@H]1c2cccc(CCC(C)(C)O)c2C[C@H](CO)N1C(=O)Cc1c(Cl)cccc1Cl`
Ans: not met
